- SYSTEM_TESTED: T1, Mouse EphA2 (Ecto) (Mouse, UniProt Q03145 26-538)
- T1 construct: extracellular domain; not shown: Fc fusion or C-terminal polyHis
- TEST: FP direct binding
Numbered stars: 1 amine (or outer) side, 2 acyl side, 3 side chain; on linkers, the order of the positions; unused ones are H or OH. Bridge positions count the residues as written; N and C are the ends. Square brackets hold non-standard residues; d marks the D form. Ends that are not written are not given here. 1Nal = N[C@@H](Cc1cccc2ccccc12)C(=O)O; TBMB = c1c(C[*:1])cc(C[*:3])cc1C[*:2]; Gly(cPent) = N[C@H](C(=O)O)C1CCCC1; hArg = N=C(N)NCCCC[C@H](N)C(=O)O; Tle = CC(C)(C)[C@H](N)C(=O)O; AF488 = AlexaFluor488 label; Aib = CC(C)(N)C(=O)O; βAla = NCCC(=O)O; Sar = CNCC(=O)O
ENDPOINT_LABEL: pKd
# pKd: negative log10 of molar concentration; output just the value

INPUT: # input binder: {AF488-βAla}-[Sar][Sar][Sar][Sar][Sar][Sar][Sar][Sar][Sar][Sar]H[dD][Gly(cPent)]PCP[1Nal]G[Aib]F[1Nal]CP[Tle]N[hArg]P[dD]C (linker 15-22-29 via TBMB) [Compound 147] ; wanted: its pKd
OUTPUT: 8.46

INPUT: # input binder: {AF488-βAla}-[Sar][Sar][Sar][Sar][Sar][Sar][Sar][Sar][Sar][Sar]H[dD]VPC[Aib][1Nal]G[Aib]F[1Nal]CP[Tle]NR[Aib][dD]C (linker 15-22-29 via TBMB) [Compound 141] ; wanted: its pKd
OUTPUT: 8.19

INPUT: # input binder: {AF488-βAla}-[Sar][Sar][Sar][Sar][Sar][Sar][Sar][Sar][Sar][Sar]H[dD]VPCP[1Nal]G[Aib]F[1Nal]CP[Tle]NR[Aib]GC (linker 15-22-29 via TBMB) [Compound 144] ; wanted: its pKd
OUTPUT: 8.59

INPUT: # input binder: {AF488-βAla}-[Sar][Sar][Sar][Sar][Sar][Sar][Sar][Sar][Sar][Sar]H[dD]VPC[Aib][1Nal]G[Aib]F[1Nal]CP[Tle]N[hArg]P[dD]C (linker 15-22-29 via TBMB) [Compound 140] ; wanted: its pKd
OUTPUT: 8.34

INPUT: # input binder: {AF488-βAla}-[Sar][Sar][Sar][Sar][Sar][Sar][Sar][Sar][Sar][Sar]H[dD]VPCP[1Nal]G[Aib]F[1Nal]CP[Tle]NR[Aib][dD]C (linker 15-22-29 via TBMB) [Compound 145] ; wanted: its pKd
OUTPUT: 8.42

The reported numbers originate from patent US20200338203A1.
